- TARGET_UNDER_TEST: T1, human CD47, endogenous cell surface form (Raji, CCRF-CEM cells) (human, UniProt Q08722 19-323)
- T1 construct: the cells carry endogenous CD47; also called cell surface CD47
- METHOD_DESCRIPTION: flow cytometry on Raji cells, MFI (FL4)
OUTCOME_MEASURE: EC50 (read off the curve)

Observe how each entry below is paired with its result.
AB02.04 (antibody, V domains shown, humanized variant of 2A1; also called AB2.04) VH: QMQLVQSGAEVKKTGSSVKVSCKASGFNIKDYYLHWVRQAPGQALEWMGWIDPDNGDTEYAQKFQDRVTITRDRSMSTAYMELSSLRSEDTAMYYCNAAYGSSSYPMDYWGQGTTVTV VL: DIQMTQSPSSLSASVGDRVTITCKASQDIHRYLSWFQQKPGKAPKSLIYRANRLVDGVPSRFSGSGSGTDFTLTISSLQPEDFATYYCLQYDEFPYTFGGGTKVEIK
~0.2 nM
AB02.03 (antibody, V domains shown, humanized variant of 2A1; also called AB2.03) VH: QMQLVQSGAEVKKTGSSVKVSCKASGFNIKDYYLHWVRQAPGQALEWMGWIDPDNGDTEYAQKFQDRVTITRDRSMSTAYMELSSLRSEDTAMYYCNAAYGSSSYPMDYWGQGTTVTV VL: DIQMTQSPSSLSASVGDRVTITCKASQDIHRYLSWYQQKPGKAPKLLIYRANRLVDGVPSRFSGSGSGTDFTFTISSLQPEDIATYYCLQYDEFPYTFGGGTKVEIK
~0.5 nM
AB02.07 (antibody, V domains shown, humanized variant of 2A1; also called AB2.07) VH: QMQLVQSGAEVKKTGSSVKVSCKASGFNIKDYYLHWVRQAPGQALEWMGWIDPDNGDTEYAQKFQDRVTITRDRSMSTAYMELSSLRSEDTAMYYCNAAYGSSSYPMDYWGQGTTVTV VL: DIQMTQSPSSLSASVGDRVTITCRASQDIHRYLAWYQQKPGKVPKLLIYRANRLQSGVPSRFSGSGSGTDFTLTISSLQPEDVATYYCLQYDEFPYTFGQGTKVEIK
~0.5 nM

Please look at the following binder next.
Exercise: Name the reported EC50 (read off the curve) value associated with the binder AB25.05 (antibody, V domains shown) VH: EVQLVQSGAEVKKPGATVKISCKVSGFNIKDYYLHWVQQAPGKGLEWMGWIDPDNGDTEYAQKFQDRVTITRDRSMSTAYMELSSLRSEDTAMYYCNAAYGSSSYPMDYWGQGTTVTV VL: NIQMTQSPSAMSASVGDRVTITCKASQDIHRYLSWFQQKPGKVPKHLIYRANRLVDGVPSRFSGSGSGTEFTLTISSLQPEDFATYYCLQYDEFPYTFGGGTKVEIK
Key: ~0.3 nM

FYI, the data here is from patent US20160251435A1.
